target-or-system: purified Z-AAT protein (Homo sapiens, UniProt P01009, E366K)
Construct: Purified Z-AAT protein from human plasma
Sequence (P01009 25-418 E366K): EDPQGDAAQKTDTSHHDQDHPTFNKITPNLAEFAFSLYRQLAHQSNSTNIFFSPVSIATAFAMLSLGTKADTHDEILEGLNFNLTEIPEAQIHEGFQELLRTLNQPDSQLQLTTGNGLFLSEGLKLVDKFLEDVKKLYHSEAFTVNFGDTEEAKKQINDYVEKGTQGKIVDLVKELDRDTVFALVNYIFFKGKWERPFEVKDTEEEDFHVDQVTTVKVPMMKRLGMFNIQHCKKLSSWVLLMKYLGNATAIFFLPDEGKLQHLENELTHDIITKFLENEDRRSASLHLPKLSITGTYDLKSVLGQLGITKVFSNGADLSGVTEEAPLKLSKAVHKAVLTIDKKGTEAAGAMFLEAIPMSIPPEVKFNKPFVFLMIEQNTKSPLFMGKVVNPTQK
measurement-notes: Biochemical Assay (Z-AAT Elastase Activity Assay)
conditions: purified Z-AAT pre-incubated with compound 1 hour, then hNE; N.D. = activity not detected up to 30 μM
value-type: IC50

Field: example entries. Status: answers known.
molecule	IC50
COCC(C)(C)c1c(-c2ccc(C(=O)O)c(F)c2)c2c(O)cc(F)cc2n1-c1ccc(F)c(F)c1	< 2 µM
C[C@H](O)C(=O)N1CC(n2c(C3CCOCC3)c(-c3ccc(F)cc3)c3cccc(O)c32)C1	> 30 µM
CNC(=O)CC(C)(C)c1c(-c2ccc(C(=O)O)cc2)c2c(O)cccc2n1-c1ccc(F)cc1	> 5 µM

Which IC50 is listed for Cc1cc(-n2c(C(C)C)c(C3CC(C(=O)O)(C(F)(F)F)C3)c3c(O)cccc32)ccc1F (stereo not drawn) ?
2 to 5 µM

Any idea what its IC50 is? The molecule is Cn1nc(-c2c(C3CCOCC3)n(-c3ccc(F)cc3)c3ccc(F)cc23)cc1C(=O)O
> 30 µM

Name the reported IC50 value associated with the molecule CC(C)c1c([C@H]2C[C@](C)(C(=O)O)C2)c2ccc(F)cc2n1-c1ccc(F)cc1
> 5 µM

Consider the molecule shown here: Oc1cccc2c1c(-c1cn[nH]c1)c(C1CCOCC1)n2-c1ccc(F)cc1 What is its recorded IC50?
> 30 µM

====

target-or-system: purified Z-AAT protein (Homo sapiens, UniProt P01009, E366K)
Construct: Purified Z-AAT protein from human plasma
measurement-notes: Biochemical Assay (Z-AAT Elastase Activity Assay)
conditions: purified Z-AAT pre-incubated with compound 1 hour, then hNE; N.D. = activity not detected up to 30 μM
The following molecules are listed with their measured IC50 values.

molecule	IC50
Cc1cc(-n2c(C(C)(C)CC#N)c(-c3ccc(C(=O)O)cc3F)c3c(O)cc(Cl)cc32)ccc1F [Compound 373]	< 2 µM

Quick one: IC50 of O=C(O)c1ccc(-c2c(C3CCOCC3)n(-c3ccc(F)c(F)c3)c3cc(F)cc(O)c23)cc1F [Compound 10] ?
< 2 µM

What value of measured IC50 is listed for COCC(C)(C)c1c(CC(=O)O)c2c(O)cc(F)cc2n1-c1ccc(F)c(C)c1 [Compound 444] ?
> 30 µM

Any idea what its IC50 is? The molecule is COc1cc(C(=O)O)cc(-c2c(C3CCOCC3)n(-c3ccc(F)cc3)c3cccc(O)c23)c1 [Compound 88]
> 30 µM

What value of IC50 has been reported for the following molecule? Cc1cc(-n2c(-c3ccc(C(=O)O)cc3)c(C3CCCOC3)c3c(O)c(F)ccc32)ccc1F (stereo not drawn) [Compound 305]
> 5 µM

Given COc1cc(-n2c(C3CCCOCC3)c(-c3ccc(C(=O)O)c(OC)c3)c3c(O)cc(F)cc32)ccc1F (stereo not drawn) [Compound 474] , state its recorded IC50.
> 5 µM

====

target-or-system: purified Z-AAT protein (Homo sapiens, UniProt P01009, E366K)
Construct: Purified Z-AAT protein from human plasma
measurement-notes: Biochemical Assay (Z-AAT Elastase Activity Assay)
conditions: purified Z-AAT pre-incubated with compound 1 hour, then hNE; N.D. = activity not detected up to 30 μM
pIC50: −log10 of the molar value.
# reported pIC50; entries follow

compound	value-type	reported-result
COc1cc(-n2c(C(C)(C)CC#N)c(-c3cc(C)c(OC)c(C(=O)O)c3)c3c(O)cc(F)cc32)ccc1F	pIC50	< 5.30
COCC(C)(C)c1c(-c2ccc(C(=O)O)cc2)c2c(O)cc(F)cc2n1-c1cccc(OC)c1F	pIC50	< 4.52
COCC(C)(C)c1c(-c2ccc(C(=O)O)cc2)c2c(N)cc(F)cc2n1-c1ccc(F)c(C)c1	pIC50	5.30 to 5.70
COCC(C)(C)c1c(-c2ccc(C(=O)O)cc2)c2c(O)cc(F)cc2n1-c1ccc(F)c(C)n1	pIC50	< 5.30
O=C(O)[C@H]1C[C@H](c2c(C3CCOCC3)n(-c3ccc(F)cc3)c3ccc(F)cc32)C1	pIC50	< 4.52

Here is another compound to look at.
What does the data say about its pIC50? Entry: COCC(=O)N1CCC(c2c(-c3ccc(C(=O)O)cc3)c3c(O)cccc3n2-c2ccc(F)cc2)C1 (stereo not drawn)
< 4.52

Cited source for all entries: patent US20230159502A1
